TEST METHOD NOTES: Mouse pharmacokinetics
Format: in vivo, male ICR mice
CONDITION SET: male, ICR, mouse, in vivo, iv; plasma analyte after single i.v. dose of compound 2 15 mg/kg, mice
READOUT TYPE: AUC(0-t)
The reply should read as a number followed by its unit.

Ask: Quick one: AUC(0-t) of CC(C)[C@H](NC(=O)Oc1cc2oc(-c3ccccc3)cc(=O)c2c(O)c1O)C(=O)O [Compound 2] ?
Reply: 88600 ng·h/mL

###

What Tmax was measured for each of the following?
TEST METHOD NOTES: Mouse pharmacokinetics
Assay type: in vivo, male ICR mice
CONDITION SET: male, ICR, mouse, iv; plasma analyte after single i.v. dose of compound 2 15 mg/kg, mice
Give bare numbers, in min.

| COMPOUND | UNIT OF MEASURE | Tmax |
| --- | --- | --- |
| O=C(O)[C@H]1O[C@@H](Oc2cc3oc(-c4ccccc4)cc(=O)c3c(O)c2O)[C@H](O)[C@@H](O)[C@@H]1O [Baicalin] | min | 6 |

Now look at this entry.
Ask: Quick one: Tmax of O=c1cc(-c2ccccc2)oc2cc(O)c(O)c(O)c12 [Baicalein] ?
Reply: 6

###

What logD was measured for each of the following?
TEST METHOD NOTES: logD7.4 by shake-flask method
Type: physicochemical
CONDITION SET: 0.1 M phosphate buffer (pH 7.4), duplicate
Give bare numbers.

The cases that follow already have their logD on record.
| COMPOUND | logD |
| --- | --- |
| CC(C)C[C@H](NC(=O)Oc1cc2oc(-c3ccccc3)cc(=O)c2c(O)c1O)C(=O)O [Compound 1] | 0.39 |
| C[C@@H](O)[C@H](NC(=O)Oc1cc2oc(-c3ccccc3)cc(=O)c2c(O)c1O)C(=O)O [Compound 4] | -0.05 |
| O=C(O)CNC(=O)Oc1cc2oc(-c3ccccc3)cc(=O)c2c(O)c1O [Compound 7] | -0.39 |
| CC[C@@H](C)[C@H](NC(=O)Oc1cc2oc(-c3ccccc3)cc(=O)c2c(O)c1O)C(=O)O [Compound 3] | 0.25 |
| CC(C)[C@H](NC(=O)Oc1cc2oc(-c3ccccc3)cc(=O)c2c(O)c1O)C(=O)O [Compound 2] | 0.04 |
| C[C@H](NC(=O)Oc1cc2oc(-c3ccccc3)cc(=O)c2c(O)c1O)C(=O)O [Compound 6] | -0.18 |

Now look at this entry.
Ask: Quick one: logD of O=C(N[C@@H](Cc1ccccc1)C(=O)O)Oc1cc2oc(-c3ccccc3)cc(=O)c2c(O)c1O [Compound 5] ?
Reply: 0.43

###

What AUC(0-t) was measured for each of the following?
TEST METHOD NOTES: Mouse pharmacokinetics
Assay type: in vivo, male ICR mice
CONDITION SET: male, ICR, mouse, iv; plasma analyte after single i.v. dose of compound 2 15 mg/kg, mice
Protocol: Pharmacokinetic studies were conducted with male ICR mice (8 weeks old; 30–35 g body wt.) purchased from Koatech Company (Pyeongtaek, Korea), as reported previously. Intravenous dosing solutions were prepared in EtOH/20% aqueous HPβCD (10/90 vol%) at 2 and 3 mg/mL for baicalein and compound 2, respectively. Oral dosing solutions were prepared in EtOH/tween 80/20% aqueous HPβCD (10/10/80 vol%) at 1 and 1.5 mg/mL for baicalein and compound 2, respectively. […]
One number for each entry, in ng·h/mL.

| MOL | AUC(0-t) / ng·h/mL |
| --- | --- |
| O=C(O)[C@H]1O[C@@H](Oc2cc3oc(-c4ccccc4)cc(=O)c3c(O)c2O)[C@H](O)[C@@H](O)[C@@H]1O | 200 |

Now look at this entry.
Ask: Quick one: AUC(0-t) of O=c1cc(-c2ccccc2)oc2cc(O)c(O)c(O)c12 ?
Reply: 4240

###

What Papp was measured for each of the following?
TEST METHOD NOTES: in vitro
CONDITION SET: PAMPA

| MOLECULE | READOUT TYPE | OBSERVED VALUE |
| --- | --- | --- |
| O=C(N[C@H](CO)[C@H](O)c1ccc([N+](=O)[O-])cc1)C(Cl)Cl | Papp | > 1 ×10⁻⁶ cm/s |

Hi, could you look up Papp for each item in my list?
1. O=c1cc(-c2ccccc2)oc2cc(O)c(O)c(O)c12
2. NS(=O)(=O)c1cc2c(cc1Cl)NCNS2(=O)=O [hydrochlorothiazide]
3. CC(C)NCC(O)COc1cccc2ccccc12 (centres unmarked)
4. COCCc1ccc(OCC(O)CNC(C)C)cc1 (centres unmarked)

Reply:
1: 5.75 ×10⁻⁶ cm/s; 2: < 0.1 ×10⁻⁶ cm/s; 3: > 1 ×10⁻⁶ cm/s; 4: > 1 ×10⁻⁶ cm/s

###

TEST METHOD NOTES: Chemical stability in physiologically-relevant solutions
Type: physicochemical
CONDITION SET: buffer, pH 1; 0.1 N HCl, 37 °C, 10 μM
READOUT TYPE: half-life at 10 μM

The cases that follow already have their half-life at 10 μM on record.
| MOL | READOUT TYPE | OBSERVED VALUE |
| --- | --- | --- |
| CC(C)C[C@H](NC(=O)Oc1cc2oc(-c3ccccc3)cc(=O)c2c(O)c1O)C(=O)O | half-life at 10 μM | 1.4 h |
| CC[C@@H](C)[C@H](NC(=O)Oc1cc2oc(-c3ccccc3)cc(=O)c2c(O)c1O)C(=O)O | half-life at 10 μM | > 4 h |
| C[C@H](NC(=O)Oc1cc2oc(-c3ccccc3)cc(=O)c2c(O)c1O)C(=O)O | half-life at 10 μM | > 4 h |

Ask: Quick one: half-life at 10 μM of CC(C)[C@H](NC(=O)Oc1cc2oc(-c3ccccc3)cc(=O)c2c(O)c1O)C(=O)O ?
Reply: > 4 h

###

TEST METHOD NOTES: Mouse pharmacokinetics
Assay type: in vivo, male ICR mice
CONDITION SET: male, ICR, mouse, in vivo, po; plasma analyte after single p.o. dose of compound 2 50 mg/kg, mice
READOUT TYPE: Cmax (ng/mL)
Answers are plain numbers, in ng/mL.

Ask: Quick one: Cmax of CC(C)[C@H](NC(=O)Oc1cc2oc(-c3ccccc3)cc(=O)c2c(O)c1O)C(=O)O [Compound 2] ?
Reply: 2930

###

TEST METHOD NOTES: Chemical stability in physiologically-relevant solutions
Assay type: physicochemical
CONDITION SET: pH 1; 0.1 N HCl, 37 °C, 10 μM
READOUT TYPE: half-life at 10 μM

Ask: Quick one: half-life at 10 μM of O=c1cc(-c2ccccc2)oc2cc(O)c(O)c(O)c12 ?
Reply: > 240 min

###

TEST METHOD NOTES: Mouse pharmacokinetics
Assay type: in vivo, male ICR mice
CONDITION SET: male, ICR, mouse, in vivo, po; plasma analyte after single p.o. dose of compound 2 50 mg/kg, mice
READOUT TYPE: half-life

Ask: Quick one: half-life of CC(C)[C@H](NC(=O)Oc1cc2oc(-c3ccccc3)cc(=O)c2c(O)c1O)C(=O)O [Compound 2] ?
Reply: 1.7 h

###

TEST METHOD NOTES: Mouse pharmacokinetics
Type: in vivo, male ICR mice
CONDITION SET: male, ICR, mouse, in vivo, iv; single i.v. dose of compound 2 15 mg/kg, mice
READOUT TYPE: clearance (L/h/kg)
Answers are plain numbers, in L/h/kg.

Ask: Quick one: clearance of CC(C)[C@H](NC(=O)Oc1cc2oc(-c3ccccc3)cc(=O)c2c(O)c1O)C(=O)O [Compound 2] ?
Reply: 0.2

###

TEST METHOD NOTES: Chemical stability in physiologically-relevant solutions
Type: physicochemical
CONDITION SET: buffer, pH 1; 0.1 N HCl, 37 °C, 10 μM
READOUT TYPE: half-life at 10 μM (h)
Answers are plain numbers, in h.

| MOL | OBSERVED VALUE |
| --- | --- |
| O=C(O)CNC(=O)Oc1cc2oc(-c3ccccc3)cc(=O)c2c(O)c1O | 1.5 |

Ask: Quick one: half-life at 10 μM of O=C(N[C@@H](Cc1ccccc1)C(=O)O)Oc1cc2oc(-c3ccccc3)cc(=O)c2c(O)c1O ?
Reply: 2.2

###

TEST METHOD NOTES: Mouse pharmacokinetics
Assay type: in vivo, male ICR mice
CONDITION SET: male, ICR, mouse, po; plasma analyte after single p.o. dose of compound 2 50 mg/kg, mice
Protocol: Pharmacokinetic studies were conducted with male ICR mice (8 weeks old; 30–35 g body wt.) purchased from Koatech Company (Pyeongtaek, Korea), as reported previously. Intravenous dosing solutions were prepared in EtOH/20% aqueous HPβCD (10/90 vol%) at 2 and 3 mg/mL for baicalein and compound 2, respectively. Oral dosing solutions were prepared in EtOH/tween 80/20% aqueous HPβCD (10/10/80 vol%) at 1 and 1.5 mg/mL for baicalein and compound 2, respectively. […]
What AUC(0-t) was measured for each of the following?
The reply should read as a number followed by its unit.

| COMPOUND | AUC(0-t) |
| --- | --- |
| O=C(O)[C@H]1O[C@@H](Oc2cc3oc(-c4ccccc4)cc(=O)c3c(O)c2O)[C@H](O)[C@@H](O)[C@@H]1O [Baicalin] | 680 ng·h/mL |

Now look at this entry.
Ask: Quick one: AUC(0-t) of O=c1cc(-c2ccccc2)oc2cc(O)c(O)c(O)c12 [Baicalein] ?
Reply: 450 ng·h/mL
